Reported IC50 for target or system UniProt:P24941, by entry.
Unit µM implied. Number only.

                                 smilesrepr  reportedproperty  experimentalvalue
0  COc1cc(O)c2c(=O)cc(-c3ccc(N4CCN(C)CC4)cc3)oc2c1N1CCNCC1              IC50               1.18

Q. For the record CN1CC[C@@H](c2c(O)cc(O)c3c(=O)cc(-c4ccc(C(F)(F)F)cc4Cl)oc23)[C@@H]1CO , what value of IC50 is listed for UniProt:P24941?
A. 0.18

---

- systemName: Cyclin-dependent kinase 7 (Homo sapiens, UniProt P50613)
- Sequence (P50613 whole entry): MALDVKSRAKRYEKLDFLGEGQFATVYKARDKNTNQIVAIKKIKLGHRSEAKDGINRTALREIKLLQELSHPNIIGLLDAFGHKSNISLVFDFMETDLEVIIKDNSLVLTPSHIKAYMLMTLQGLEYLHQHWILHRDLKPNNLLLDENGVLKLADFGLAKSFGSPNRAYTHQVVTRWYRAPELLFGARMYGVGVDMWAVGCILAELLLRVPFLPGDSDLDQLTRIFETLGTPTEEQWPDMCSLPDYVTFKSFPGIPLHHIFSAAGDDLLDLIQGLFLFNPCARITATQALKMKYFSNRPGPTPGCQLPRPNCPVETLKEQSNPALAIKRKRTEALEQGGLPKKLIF
- assaySummary: Inhibition of CDK7 (unknown origin) by LANCE ULight TR-FRET assay
reportedProperty: IC50 (µM)
Record the value in µM, omitting the unit from your answer.

Q. Param item = COc1ccc(F)cc1-c1c(F)cnc2[nH]c(C3=CCN([C@H]4CC[C@H](C(=O)O)CC4)CC3)cc12 ; retrieve measured IC50.
A. 14.4

---

- systemName: Cyclin-dependent kinase 2 (Homo sapiens, UniProt P24941)
- assaySummary: Inhibition of CDK2 (unknown origin) by Kinomescan method
reportedProperty: IC50 (nM)
Note: unit nM is implicit; provide only the numeric part.

Q. # query: IC50 of entry COC[C@@H](C)N[C@H]1CC[C@H](Nc2cc(-c3cccc(NCC4(C#N)CCOCC4)n3)c(Cl)cn2)CC1
A. 706

---

- systemName: Cyclin-dependent kinase 4 (Homo sapiens)
- assaySummary: Inhibition of CDK4 (unknown origin) by LANCE ULight TR-FRET assay
reportedProperty: pIC50
# pIC50: negative log10 of molar concentration; output just the value

Q. Param item = COc1ccc(F)cc1-c1c(F)cnc2[nH]c(C3=CCN([C@H]4CC[C@H](C(=O)O)CC4)CC3)cc12 ; retrieve measured pIC50.
A. 7.79

---

- systemName: Cyclin-dependent kinase 14 (Homo sapiens)
- assaySummary: Inhibition of CDK14 (unknown origin) incubated for 120 mins in presence of ATP by HotSpot kinase assay
pIC50: −log10 of the molar value.
reportedProperty: pIC50

Q. Using the record for CCCc1cc(N[C@@H]2CC[C@@H](N)C2)n2nccc2n1 , report its pIC50.
A. < 5.92

---

- systemName: Cyclin-dependent kinase 9 (Homo sapiens)
reportedProperty: IC50 (nM)
Give the value, in units of nM, as a plain number.

Q. I would be grateful if you could share the reported IC50 for COc1cc(O)c2c(=O)cc(-c3ccc(N4CCN(C)CC4)cc3)oc2c1N1CCNCC1 .
A. 30

---

- systemName: Cyclin-dependent kinase 17 (Homo sapiens, UniProt Q00537)
- Sequence (Q00537 whole entry): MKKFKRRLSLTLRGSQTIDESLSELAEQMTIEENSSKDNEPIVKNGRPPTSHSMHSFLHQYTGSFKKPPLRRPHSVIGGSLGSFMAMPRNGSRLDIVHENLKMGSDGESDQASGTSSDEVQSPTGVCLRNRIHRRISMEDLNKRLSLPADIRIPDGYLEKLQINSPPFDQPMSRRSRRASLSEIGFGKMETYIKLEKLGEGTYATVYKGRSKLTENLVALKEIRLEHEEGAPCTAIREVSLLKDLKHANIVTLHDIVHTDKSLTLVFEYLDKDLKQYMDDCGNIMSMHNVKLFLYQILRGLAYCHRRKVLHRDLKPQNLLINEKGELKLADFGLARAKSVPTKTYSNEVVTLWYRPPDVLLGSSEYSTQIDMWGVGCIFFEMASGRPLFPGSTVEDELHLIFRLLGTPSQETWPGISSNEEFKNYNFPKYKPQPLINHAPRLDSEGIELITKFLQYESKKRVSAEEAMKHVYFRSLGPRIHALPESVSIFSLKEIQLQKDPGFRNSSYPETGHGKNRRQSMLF
- assaySummary: Inhibition of CDK17 (unknown origin) by Kinomescan method
reportedProperty: IC50 (nM)
All answers are understood in nM, so give the number only.

Q. What does the record list as IC50 for COC[C@@H](C)N[C@H]1CC[C@H](Nc2cc(-c3cccc(NCC4(C#N)CCOCC4)n3)c(Cl)cn2)CC1 ?
A. 1500

---

- systemName: CDK9/cyclin T1 (Homo sapiens)
- Sequence (O60563 whole entry): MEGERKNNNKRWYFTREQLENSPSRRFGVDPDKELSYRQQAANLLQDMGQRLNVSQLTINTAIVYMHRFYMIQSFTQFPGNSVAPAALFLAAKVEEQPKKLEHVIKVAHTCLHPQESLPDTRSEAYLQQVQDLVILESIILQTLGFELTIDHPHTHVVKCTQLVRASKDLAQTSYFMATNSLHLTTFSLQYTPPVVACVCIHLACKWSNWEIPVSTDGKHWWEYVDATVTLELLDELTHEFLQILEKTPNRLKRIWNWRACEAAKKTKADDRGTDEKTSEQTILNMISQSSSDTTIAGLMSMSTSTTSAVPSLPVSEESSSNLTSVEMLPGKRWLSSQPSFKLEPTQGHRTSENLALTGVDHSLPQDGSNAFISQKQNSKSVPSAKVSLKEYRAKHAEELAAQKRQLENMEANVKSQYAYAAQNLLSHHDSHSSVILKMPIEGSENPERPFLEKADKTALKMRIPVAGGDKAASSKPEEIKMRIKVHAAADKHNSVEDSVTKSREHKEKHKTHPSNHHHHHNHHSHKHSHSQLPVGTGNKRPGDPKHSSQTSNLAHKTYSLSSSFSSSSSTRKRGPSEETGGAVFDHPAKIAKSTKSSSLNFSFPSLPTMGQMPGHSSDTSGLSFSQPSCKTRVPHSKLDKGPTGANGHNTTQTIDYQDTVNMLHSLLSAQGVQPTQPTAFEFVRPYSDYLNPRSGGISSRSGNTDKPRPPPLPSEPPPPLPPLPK
- Sequence (P50750 whole entry): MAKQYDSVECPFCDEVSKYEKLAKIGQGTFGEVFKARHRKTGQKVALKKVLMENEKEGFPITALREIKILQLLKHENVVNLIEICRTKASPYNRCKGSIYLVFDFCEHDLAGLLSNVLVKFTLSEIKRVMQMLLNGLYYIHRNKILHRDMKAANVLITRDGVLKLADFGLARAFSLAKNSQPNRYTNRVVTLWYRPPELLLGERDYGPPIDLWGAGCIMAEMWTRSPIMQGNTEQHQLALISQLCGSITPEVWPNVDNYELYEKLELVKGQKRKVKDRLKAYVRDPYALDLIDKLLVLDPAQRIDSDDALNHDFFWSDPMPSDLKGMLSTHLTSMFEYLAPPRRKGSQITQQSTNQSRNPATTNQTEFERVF
- assaySummary: Inhibition of human CDK9/cyclin T1 in presence of ATP
reportedProperty: IC50 (nM)
Use nM as the unit, but write only the number.

Q. Quick one: IC50 for CN(C)CCNC(=O)c1ccc(Nc2ncc3cc(C(=O)N(C)C)n(C4CCCC4)c3n2)c(F)c1 ?
A. 7

---

- systemName: Cyclin-dependent kinase 2/cyclin A (Homo sapiens)
- assaySummary: Inhibition of CDK2/cyclin A (unknown origin) using GST-CTD and gamma-32P-ATP as substrate incubated for 5 min by […]
- Format: protein-complex assay
reportedProperty: IC50
State the value, then name its unit.

Q. Could you share which IC50 value was measured for Nc1n[nH]c(N)c1/N=N/c1ccc(O)cc1 ?
A. 3.5 µM

---

- systemName: Cyclin-dependent kinase 16 (Homo sapiens, UniProt Q00536)
- assaySummary: Inhibition of CDK16 (unknown origin) incubated for 120 mins in presence of ATP by HotSpot kinase assay
reportedProperty: IC50

Q. Please give the measured IC50 for this compound: CCCc1cc(N[C@@H]2CC[C@@H](N)C2)n2nccc2n1
A. > 1200 nM

---

- systemName: Cyclin-dependent kinase 7 (Homo sapiens)
- assaySummary: Inhibition of CDK7 (unknown origin) assessed as substrate phosphorylation using ULight MBP peptide as substrate in presence of ATP incubated for 1 hr by FRET based LANCE Ultra KinaSelect screen assay
pIC50: −log10 of the molar value.
reportedProperty: pIC50

Q. Param item = COc1ccccc1-c1cc(Nc2cccc(CS(N)(=O)=O)c2)ncn1 ; retrieve measured pIC50.
A. < 5.00

---

- systemName: Cyclin-dependent kinase 17 (Homo sapiens)
- assaySummary: Inhibition of CDK17 (unknown origin) incubated for 120 mins in presence of ATP by HotSpot kinase assay
reportedProperty: IC50

Q. Looking for the measured IC50 of CCCc1cc(N[C@@H]2CC[C@@H](N)C2)n2nccc2n1 , can you help?
A. > 1200 nM

---

- systemName: Cyclin-dependent kinase 19 (Homo sapiens)
pIC50: −log10 of the molar value.
reportedProperty: pIC50

Q. Could you share what pIC50 was measured for CCCc1cc(N[C@@H]2CC[C@@H](N)C2)n2nccc2n1 , tested on Cyclin-dependent kinase 19 (Homo sapiens)?
A. < 5.92

---

- systemName: CDK4/Cyclin D3 (Homo sapiens)
- assaySummary: Inhibition of human CDK4/Cyclin D3 in presence of ATP
reportedProperty: pIC50
Please treat pIC50 as minus the base-10 logarithm of the molar concentration.

Q. // returns reported pIC50 for input CN(C)CCNC(=O)c1ccc(Nc2ncc3cc(C(=O)N(C)C)n(C4CCCC4)c3n2)c(F)c1
A. 8.60

---

- systemName: Cyclin-dependent kinase 13 (Homo sapiens, UniProt Q14004)
reportedProperty: pIC50
Interpret pIC50 as the negative base-10 log of the concentration measured in mol/L.

Q. Request - read-out pIC50 | tested on Cyclin-dependent kinase 13 (Homo sapiens, UniProt Q14004) | molecule CCCc1cc(N[C@@H]2CC[C@@H](N)C2)n2nccc2n1
A. 5.34

---

- systemName: Cyclin-dependent kinase 4 (Homo sapiens, UniProt P11802)
- assaySummary: Inhibition of CDK4 (unknown origin) incubated for 120 mins in presence of ATP by HotSpot kinase assay
reportedProperty: IC50

Q. Give its IC50 value. Item: CCCc1cc(N[C@@H]2CC[C@@H](N)C2)n2nccc2n1
A. > 1.2 µM

---

- systemName: Cyclin-dependent kinase 9 (Homo sapiens, UniProt P50750)
- Sequence (P50750 whole entry): as above
- assaySummary: Inhibition of CDK9 (unknown origin) using TMB as substrate by ELISA
reportedProperty: IC50 (nM)
Field format: number, assumed nM, no unit text.

Q. Query (compound): O=C1N=NC(=O)/C(=C/Nc2ccc(-c3nc4ncccc4[nH]3)cc2)C(=O)N1 ; field requested: IC50
A. 500

---

- systemName: Cyclin-dependent kinase 1 (Homo sapiens, UniProt P06493)
- Sequence (P06493 whole entry): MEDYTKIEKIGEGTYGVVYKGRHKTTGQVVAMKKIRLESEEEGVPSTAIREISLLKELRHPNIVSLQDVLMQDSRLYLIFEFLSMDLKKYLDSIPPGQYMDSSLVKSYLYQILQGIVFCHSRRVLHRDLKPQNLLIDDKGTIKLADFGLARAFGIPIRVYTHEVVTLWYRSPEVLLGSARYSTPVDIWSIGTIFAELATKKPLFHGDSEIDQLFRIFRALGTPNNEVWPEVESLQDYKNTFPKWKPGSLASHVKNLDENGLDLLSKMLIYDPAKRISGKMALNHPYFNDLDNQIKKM
- assaySummary: Inhibition of CDK1 (unknown origin) by LANCE ULight TR-FRET assay
reportedProperty: IC50 (nM)
Express your answer in nM, writing the number without its unit.

Q. Look up IC50 with Cyclin-dependent kinase 1 (Homo sapiens, UniProt P06493) for this compound: COc1ccc(F)cc1-c1c(F)cnc2[nH]c(C3=CCN([C@H]4CC[C@H](C(=O)O)CC4)CC3)cc12
A. 348

---

- systemName: Cyclin-dependent kinase 6 (Homo sapiens)
- Sequence (Q00534 whole entry): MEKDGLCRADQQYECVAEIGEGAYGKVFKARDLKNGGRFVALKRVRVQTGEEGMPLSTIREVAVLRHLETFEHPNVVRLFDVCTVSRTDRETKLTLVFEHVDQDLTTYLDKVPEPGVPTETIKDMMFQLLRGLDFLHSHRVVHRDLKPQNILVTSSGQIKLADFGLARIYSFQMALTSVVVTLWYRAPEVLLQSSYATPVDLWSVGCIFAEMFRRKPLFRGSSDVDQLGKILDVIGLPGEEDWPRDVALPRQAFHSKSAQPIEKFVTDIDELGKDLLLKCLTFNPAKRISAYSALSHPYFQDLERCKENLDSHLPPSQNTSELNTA
- assaySummary: Inhibition of CDK6 (unknown origin) assessed as substrate phosphorylation using ULight MBP peptide as substrate in presence of ATP incubated for 1 hr by FRET based LANCE Ultra KinaSelect screen assay
reportedProperty: IC50

Q. # get_value(readout='IC50', item= COc1ccccc1-c1cc(Nc2cccc(CS(N)(=O)=O)c2)ncn1 )
A. > 10 µM

---

- systemName: Cyclin-dependent kinase 8 (Homo sapiens)
- Sequence (P49336 whole entry): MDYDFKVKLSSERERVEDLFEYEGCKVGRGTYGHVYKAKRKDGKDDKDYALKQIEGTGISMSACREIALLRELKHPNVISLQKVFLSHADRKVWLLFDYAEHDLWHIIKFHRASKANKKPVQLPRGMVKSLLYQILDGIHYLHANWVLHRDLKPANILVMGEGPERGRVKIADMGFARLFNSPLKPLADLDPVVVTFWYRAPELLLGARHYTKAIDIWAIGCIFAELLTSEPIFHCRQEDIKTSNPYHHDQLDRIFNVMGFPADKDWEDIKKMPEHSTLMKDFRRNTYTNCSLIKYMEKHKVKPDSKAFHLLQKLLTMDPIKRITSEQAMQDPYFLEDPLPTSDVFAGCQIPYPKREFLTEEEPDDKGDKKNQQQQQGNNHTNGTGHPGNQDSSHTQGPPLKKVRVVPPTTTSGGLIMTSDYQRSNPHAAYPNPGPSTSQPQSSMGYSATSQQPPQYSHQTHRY
- assaySummary: Inhibition of CDK8 (unknown origin) by Kinomescan method
reportedProperty: IC50

Q. Which IC50 value belongs to COC[C@@H](C)N[C@H]1CC[C@H](Nc2cc(-c3cccc(NCC4(C#N)CCOCC4)n3)c(Cl)cn2)CC1 ?
A. > 10 µM

---

- systemName: Cyclin-dependent kinase 2 (Homo sapiens, UniProt P24941)
- assaySummary: Inhibition of CDK2 (unknown origin) by LANCE ULight TR-FRET assay
reportedProperty: IC50 (µM)
Give the value, in units of µM, as a plain number.

Q. Any idea what IC50 was measured for COc1ccc(F)cc1-c1c(F)cnc2[nH]c(C3=CCN([C@H]4CC[C@H](C(=O)O)CC4)CC3)cc12 ?
A. 0.328

---

- systemName: Cyclin-dependent kinase 5 (Homo sapiens)
- Sequence (Q00535 whole entry): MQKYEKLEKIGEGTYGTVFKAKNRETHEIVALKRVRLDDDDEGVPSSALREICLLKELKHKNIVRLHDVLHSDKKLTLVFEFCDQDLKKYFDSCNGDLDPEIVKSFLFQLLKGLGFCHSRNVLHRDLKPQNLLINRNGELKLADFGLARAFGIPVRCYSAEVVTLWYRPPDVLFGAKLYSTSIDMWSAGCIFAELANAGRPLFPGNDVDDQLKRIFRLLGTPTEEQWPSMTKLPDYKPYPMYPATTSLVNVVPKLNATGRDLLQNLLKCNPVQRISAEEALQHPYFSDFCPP
- assaySummary: Inhibition of CDK5 (unknown origin) incubated for 120 mins in presence of ATP by HotSpot kinase assay
pIC50: −log10 of the molar value.
reportedProperty: pIC50

Q. What value of pIC50 has been reported for the following compound? CCCc1cc(N[C@@H]2CC[C@@H](N)C2)n2nccc2n1
A. < 5.92
